System: HARA
Experiment: relative viability (nuclei count vs DMSO), 5 days (fraction); higher = more cells survive
Conditions: first compound 0.05 µM
So I've got a bunch of molecules here, and I need their relative viability values.
Give bare numbers.

>>> measured("Nc1ccn([C@@H]2O[C@H](CO)[C@@H](O)[C@@H]2O)c(=O)n1 [Cytarabine] + Cc1cc(Nc2cc(N3CCN(C)CC3)nc(Sc3ccc(NC(=O)C4CC4)cc3)n2)n[nH]1 [Tozasertib] (partner 0.1 µM)")
0.0829

IN: Write down relative viability measured for item COc1cc2nccc(Oc3ccc(NC(=O)Nc4cc(C)on4)c(Cl)c3)c2cc1OC [Tivozanib] + Cc1nc(NC(=O)N2CCC[C@H]2C(N)=O)sc1-c1ccnc(C(C)(C)C(F)(F)F)c1 [Alpelisib] (partner 2 µM)
OUT: 0.908

----------
So I've got a bunch of compounds here, and I need their relative viability values.
System: NCI-H1975
Experiment: relative viability (nuclei count vs DMSO), 5 days (fraction); higher = more cells survive
Settings: first compound 4 µM
Numbers only.

// worked examples, relative viability included
>>> measured("Cc1sc2c(c1C)C(c1ccc(Cl)cc1)=N[C@@H](CC(=O)OC(C)(C)C)c1nnc(C)n1-2 [JQ1] + CC1(C)CCC(c2ccc(Cl)cc2)=C(CN2CCN(c3ccc(C(=O)NS(=O)(=O)c4ccc(N[C@H](CCN5CCOCC5)CSc5ccccc5)c(S(=O)(=O)C(F)(F)F)c4)cc3)CC2)C1 [Navitoclax] (partner 0.5 µM)")
0.266
>>> measured("Cc1sc2c(c1C)C(c1ccc(Cl)cc1)=N[C@@H](CC(=O)OC(C)(C)C)c1nnc(C)n1-2 [JQ1] + CC(=O)c1c(C)c2cnc(Nc3ccc(N4CCNCC4)cn3)nc2n(C2CCCC2)c1=O [Palbociclib] (partner 0.5 µM)")
0.248
>>> measured("Cc1sc2c(c1C)C(c1ccc(Cl)cc1)=N[C@@H](CC(=O)OC(C)(C)C)c1nnc(C)n1-2 [JQ1] + O=C(c1cc(Cc2n[nH]c(=O)c3ccccc23)ccc1F)N1CCN(C(=O)C2CC2)CC1 [Olaparib] (partner 8 µM)")
0.342
>>> measured("Cc1sc2c(c1C)C(c1ccc(Cl)cc1)=N[C@@H](CC(=O)OC(C)(C)C)c1nnc(C)n1-2 [JQ1] + C[C@]1(O)C[C@@H](c2nc(-c3ccc4ccc(-c5ccccc5)nc4c3)c3c(N)nccn32)C1 [Linsitinib] (partner 1 µM)")
0.379
>>> measured("Cc1sc2c(c1C)C(c1ccc(Cl)cc1)=N[C@@H](CC(=O)OC(C)(C)C)c1nnc(C)n1-2 [JQ1] + Cc1nc(NC(=O)N2CCC[C@H]2C(N)=O)sc1-c1ccnc(C(C)(C)C(F)(F)F)c1 [Alpelisib] (partner 2 µM)")
0.335
>>> measured("Cc1sc2c(c1C)C(c1ccc(Cl)cc1)=N[C@@H](CC(=O)OC(C)(C)C)c1nnc(C)n1-2 [JQ1] + CC(C)C[C@H](NC(=O)[C@H](Cc1ccccc1)NC(=O)c1cnccn1)B(O)O [Bortezomib] (partner 0.002 µM)")
0.152
>>> measured("Cc1sc2c(c1C)C(c1ccc(Cl)cc1)=N[C@@H](CC(=O)OC(C)(C)C)c1nnc(C)n1-2 [JQ1] + Nc1ncn([C@H]2C[C@H](O)[C@@H](CO)O2)c(=O)n1 [Decitabine] (partner 2 µM)")
0.232

We now examine a further compound.
IN: Write down relative viability measured for item Cc1sc2c(c1C)C(c1ccc(Cl)cc1)=N[C@@H](CC(=O)OC(C)(C)C)c1nnc(C)n1-2 [JQ1] + CS(=O)(=O)N1CCN(Cc2cc3nc(-c4cccc5[nH]ncc45)nc(N4CCOCC4)c3s2)CC1 [Pictilisib] (partner 1 µM)
OUT: 0.204

----------
Test system: NCI-H647
Assay: relative viability (nuclei count vs DMSO), 5 days (fraction); higher = more cells survive
Conditions: first compound 15.81 µM
Binary label based on relative viability with cut-off 0.7: below gives criterion met, not below gives criterion not met.

See these solved cases before continuing.
>>> group_label("O=C(O)CCCCC(CCSCc1ccccc1)SCc1ccccc1 (stereo not given) [CPI-613] + O=C(c1cc(Cc2n[nH]c(=O)c3ccccc23)ccc1F)N1CCN(C(=O)C2CC2)CC1 [Olaparib] (partner 8 µM)")
"criterion met"
>>> group_label("O=C(O)CCCCC(CCSCc1ccccc1)SCc1ccccc1 (stereo not given) [CPI-613] + Cc1nc(Nc2ncc(C(=O)Nc3c(C)cccc3Cl)s2)cc(N2CCN(CCO)CC2)n1 [Dasatinib] (partner 0.075 µM)")
"criterion met"
>>> group_label("O=C(O)CCCCC(CCSCc1ccccc1)SCc1ccccc1 (stereo not given) [CPI-613] + CC(=O)c1c(C)c2cnc(Nc3ccc(N4CCNCC4)cn3)nc2n(C2CCCC2)c1=O [Palbociclib] (partner 0.5 µM)")
"criterion met"

Now for another entry.
IN: # strict comparison: is reported relative viability < 0.7? input = O=C(O)CCCCC(CCSCc1ccccc1)SCc1ccccc1 (stereo not given) [CPI-613] + C[C@@H](Oc1cc(-c2cnn(C3CCNCC3)c2)cnc1N)c1c(Cl)ccc(F)c1Cl [Crizotinib] (partner 1 µM)
OUT: criterion not met

----------
Tested on: HCC-78
Assay: relative viability (nuclei count vs DMSO), 5 days (fraction); higher = more cells survive
Details: first compound 0.08 µM
So I've got a bunch of molecules here, and I need their relative viability values.

>>> measured("Cc1cnc(-c2cnc(NCCNc3ccc(C#N)cn3)nc2-c2ccc(Cl)cc2Cl)[nH]1 + COc1cccc2cc(-c3nc([C@H]4CC[C@H](C(=O)O)CC4)n4ncnc(N)c34)[nH]c12 [OSI-027] (partner 0.5 µM)")
0.41

We now examine a further molecule.
IN: Write down relative viability measured for item O=c1[nH]c2ccccc2n1C1CCN(CCCC(c2ccc(F)cc2)c2ccc(F)cc2)CC1 [Pimozide] + O=C(c1cc(Cc2n[nH]c(=O)c3ccccc23)ccc1F)N1CCN(C(=O)C2CC2)CC1 [Olaparib] (partner 8 µM)
OUT: 0.832

----------
Tested on: HOP-62
Experiment: relative viability (nuclei count vs DMSO), 5 days (fraction); higher = more cells survive
Conditions: first compound 5 µM
Binary label based on relative viability with cut-off 0.5: below gives yes (1), not below gives no (0).

IN: # strict comparison: is reported relative viability < 0.5? input = O=C(O)CCCCC(CCSCc1ccccc1)SCc1ccccc1 (configuration not stated) [CPI-613] + N=C(N)NC(=N)NCCc1ccccc1 [Phenformin] (partner 250 µM)
OUT: no (0)

IN: # strict comparison: is reported relative viability < 0.5? input = O=C(O)CCCCC(CCSCc1ccccc1)SCc1ccccc1 (configuration not stated) [CPI-613] + O=C(CCCCCCC(=O)Nc1ccccc1)NO [Vorinostat] (partner 1 µM)
OUT: no (0)

IN: # strict comparison: is reported relative viability < 0.5? input = O=C(O)CCCCC(CCSCc1ccccc1)SCc1ccccc1 (configuration not stated) [CPI-613] + Nc1ncn([C@H]2C[C@H](O)[C@@H](CO)O2)c(=O)n1 [Decitabine] (partner 2 µM)
OUT: yes (1)

IN: # strict comparison: is reported relative viability < 0.5? input = O=C(O)CCCCC(CCSCc1ccccc1)SCc1ccccc1 (configuration not stated) [CPI-613] + CS(=O)(=O)N1CCN(Cc2cc3nc(-c4cccc5[nH]ncc45)nc(N4CCOCC4)c3s2)CC1 [Pictilisib] (partner 1 µM)
OUT: no (0)

IN: # strict comparison: is reported relative viability < 0.5? input = O=C(O)CCCCC(CCSCc1ccccc1)SCc1ccccc1 (configuration not stated) [CPI-613] + C[C@@H](Oc1cc(-c2cnn(C3CCNCC3)c2)cnc1N)c1c(Cl)ccc(F)c1Cl [Crizotinib] (partner 1 µM)
OUT: no (0)

IN: # strict comparison: is reported relative viability < 0.5? input = O=C(O)CCCCC(CCSCc1ccccc1)SCc1ccccc1 (configuration not stated) [CPI-613] + CC(=O)c1c(C)c2cnc(Nc3ccc(N4CCNCC4)cn3)nc2n(C2CCCC2)c1=O [Palbociclib] (partner 0.5 µM)
OUT: yes (1)

----------
System: LCLC-97TM1
Experiment: relative viability (nuclei count vs DMSO), 5 days (fraction); higher = more cells survive
Details: first compound 0.002 µM
Quantity: relative viability
Answers are plain numbers.

// worked examples, relative viability included
>>> measured("CC(=O)O[C@@]12CO[C@@H]1C[C@H](O)[C@@]1(C)C(=O)[C@H](O)C3=C(C)[C@@H](OC(=O)[C@H](O)[C@@H](NC(=O)OC(C)(C)C)c4ccccc4)C[C@@](O)([C@@H](OC(=O)c4ccccc4)[C@H]21)C3(C)C [Docetaxel] + CC1(C)CCC(c2ccc(Cl)cc2)=C(CN2CCN(c3ccc(C(=O)NS(=O)(=O)c4ccc(N[C@H](CCN5CCOCC5)CSc5ccccc5)c(S(=O)(=O)C(F)(F)F)c4)cc3)CC2)C1 [Navitoclax] (partner 0.5 µM)")
0.145
>>> measured("CC(=O)O[C@@]12CO[C@@H]1C[C@H](O)[C@@]1(C)C(=O)[C@H](O)C3=C(C)[C@@H](OC(=O)[C@H](O)[C@@H](NC(=O)OC(C)(C)C)c4ccccc4)C[C@@](O)([C@@H](OC(=O)c4ccccc4)[C@H]21)C3(C)C [Docetaxel] + C[C@@H](Oc1cc(-c2cnn(C3CCNCC3)c2)cnc1N)c1c(Cl)ccc(F)c1Cl [Crizotinib] (partner 1 µM)")
0.115

We now examine a further compound.
IN: Write down relative viability measured for item CC(=O)O[C@@]12CO[C@@H]1C[C@H](O)[C@@]1(C)C(=O)[C@H](O)C3=C(C)[C@@H](OC(=O)[C@H](O)[C@@H](NC(=O)OC(C)(C)C)c4ccccc4)C[C@@](O)([C@@H](OC(=O)c4ccccc4)[C@H]21)C3(C)C [Docetaxel] + CC(=O)Nc1cccc(-n2c(=O)n(C3CC3)c(=O)c3c(Nc4ccc(I)cc4F)n(C)c(=O)c(C)c32)c1 [Trametinib] (partner 0.02 µM)
OUT: 0.148
